Test system: human lymphoma cell line Raji
protocol_notes: Caspase cascade activation assay in Raji cells
Assay type: cell-based
cond: 48 h assay, read-out: Caspase Activation Potency EC50 Raji
So I've got a bunch of compounds here, and I need their EC50 values.
Hi! Could you send only the number? It should be in nM, unit omitted.

Lookup: Fill in the recorded EC50 for this compound, with human lymphoma cell line Raji as test system: c1ccc(-c2cc3ncnc(NCc4ccc5c(c4)OCO5)c3s2)cc1
Found: 1130

Lookup: Lab note: need EC50 for c1cncc(-c2cc3ncnc(NCc4ccc5c(c4)OCO5)c3s2)c1 on human lymphoma cell line Raji, anyone have it?
Found: 2760

These measurements were taken from patent US20070099941A1.
